- Tested on: T1, human UPK1B (hUPK1B) protein, full length, on the cell surface (human, UniProt O75841 1-260)
- T1 sequence: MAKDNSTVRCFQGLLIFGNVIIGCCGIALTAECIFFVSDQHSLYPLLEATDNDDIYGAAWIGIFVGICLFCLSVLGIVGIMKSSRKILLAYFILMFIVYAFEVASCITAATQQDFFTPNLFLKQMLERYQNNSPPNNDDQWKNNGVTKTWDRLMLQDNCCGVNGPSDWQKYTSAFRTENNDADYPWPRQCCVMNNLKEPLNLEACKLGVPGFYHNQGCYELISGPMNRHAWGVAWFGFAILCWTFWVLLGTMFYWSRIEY
- Measurement notes: cell-based or functional assay
Parameter measured: IVK, HxUPK1B, 250pM, fz, % live
Number first, unit second: that is the form wanted.

- Binder: "SC115.18 (antibody, V domains shown) VH: QVQLQQPGAELVRPGSSVKLSCKASGYTFTSYWMHWVKQRPMQGLEWIGNIDPSDSEIYYNQKFKDKATLTVDKSSGTAYMQLSSLTSEDSAVYYCARRSGSRDYYGMDDWGQGTSVTVSS VL: DIVMTQSPSSLTVTAGEKVTMRCKSSQSLLNSGNQKNYLTWYQQKPGQPPKLLISWASTRDSGVPDRFTGSGSRTDFILTISSVQAEDLAVYYCQNDYSYPLTFGAGTKLELK"
  IVK, HxUPK1B, 250pM, fz, % live: "22.9 % live"
- Binder: "SC115.9 (antibody, IgG2a, V domains shown) VH: QVQLQQPGAELVKPGASVKMSCKASGYTFTSNWMHWVKQRPGQGLEWIGVIDPSDTYISYNQKFKGKATLTVDTSSSTAYMQLSSLTSEDSAVYYCTRRDSGWYFDVWGAGTTVTVSS VL: DIVMTQSPSSLTVTAGEKVTMSCKSSQSLLNSGNQKNYLTWYQQKPGQPPKLLIYWASTRESGVPDRFTGSGSGTDFTLTISSVQAEDLAVYYCQNDYSYPLTFGAGTKLELK"
  IVK, HxUPK1B, 250pM, fz, % live: "17.6 % live"
- Binder: "SC115.4 (antibody, IgG2a, V domains shown) VH: DVKLVESGGGLVKLGGSLKLSCAASGFTFSSYPMSWVRQTPEMRLEWVATISSGGGITYYPDSVKGRFTISRDNAKNTLSLQMNSLRSEDTAMYYCSRLYYSDYEGYMDYWGQGTSVTVSS VL: DIVLTQSPASLAVSLGQRATISCRASKSVSTSGYSYMHWYQQKPGQPPKLLIYLASNLESGVPARFSGSGSGTDFTLNIHPVEEEDASTYYCQHSRELPLTFGAGTKLELK"
  IVK, HxUPK1B, 250pM, fz, % live: "89 % live"
- Binder: "SC115.7 (antibody, V domains shown) VH: EVQLQQSGAELVRPGASVKLSCTASGFNIKDSFIHWVKKRPEEGLEWIGWIDPEDGETKYAPKFQDKATITADTSSNTAYLQLSSLTSEDTAIYYCARRERFYGIYYALDYWGQGTSVTVSS VL: DIVMTQSPSSLTVTAGEKVTMSCKSSQSLLNSGNQKNYLTWYQQKLGQPPKLLIYWASTRESGVPDRFTGSGSGTDFTLTISSVQAEDLAVYYCQNDYSNPFTFGSGTKLEIK"
  IVK, HxUPK1B, 250pM, fz, % live: "48.7 % live"

Exercise: Requested field: IVK, HxUPK1B, 250pM, fz, % live. Item: SC115.1 (antibody, IgG1, V domains shown) VH: QVLLQQSGPQLVRPGASVKISCKASGYSFTSYWIHWVKQRPGQGLEWIGMIDPSDSETSFNQKFKDKATLTVDKSSSTAYMQLSSPTSEDSAVYYCARSYYASRFDYWGQGATLTVSS VL: DIVMTQSPSSLAMSVGQKVTMNCKSSQSLLNSNNQKNYLAWYQQKPGQSPKLLVYFASTRESGVPDRFIGSGSGTDFTLTITSVQAEDLADYFCLQHYGTPLTFGAGTKLELK
Solution: 23.1 % live

Exercise: Recorded IVK, HxUPK1B, 250pM, fz, % live of SC115.51 (antibody, V domains shown) VH: QVQLKQSGPGLVQPSQSLSITCTVSGFSLTNYGIHWVRQSPGKGLEWLGVIWRGGSTDYNAGFMSRLTITKDNSKSQVFFKMNSLQGDDTAIYYCAKNTGRGALDYWGQGTTLTVSS VL: DIVMTQSPSSLAVTAGEKVTMRCKSSQSLLWSVNQNNYLSWYQQKQGQPPKLLISGASIRESWVPDRFTGSGSGTDFTLTISNVHAEDLAVYYCQHNHGSFLPYTFGGGTKLEIK , please.
Solution: 100 % live

Exercise: // returns reported IVK, HxUPK1B, 250pM, fz, % live for input SC115.65 (antibody, IgG2a, V domains shown) VH: EVQLQQSGPELVKPGASVKISCKASGYSFTGYFMNWVMQSHGKSLEWIGRINPYNGDTFYNQKFKGKATLTVDKSSNTAHMELRSLASEDSGVYYCAGHNNYGVSWGQGTTLTVSS VL: DVLMTQTPLSLPVSLGDQASISCRSSQIIVHSNGNTYLEWYLQKPGQSPKLLIYKVSNRFSGVPDRFSGSGSGTDFTLKISRVEAEDLGVYYCFQGSHLPYTFGGGTKLEIK
Solution: 98.3 % live

The measured values listed here are drawn from patent US20190000969A1.
